- study-system: IGF-1 receptor on the cells of the PathHunter IGF1R Functional Assay (DiscoverX) (UniProt P08069 31-1367)
- Sequence (P08069 31-1367): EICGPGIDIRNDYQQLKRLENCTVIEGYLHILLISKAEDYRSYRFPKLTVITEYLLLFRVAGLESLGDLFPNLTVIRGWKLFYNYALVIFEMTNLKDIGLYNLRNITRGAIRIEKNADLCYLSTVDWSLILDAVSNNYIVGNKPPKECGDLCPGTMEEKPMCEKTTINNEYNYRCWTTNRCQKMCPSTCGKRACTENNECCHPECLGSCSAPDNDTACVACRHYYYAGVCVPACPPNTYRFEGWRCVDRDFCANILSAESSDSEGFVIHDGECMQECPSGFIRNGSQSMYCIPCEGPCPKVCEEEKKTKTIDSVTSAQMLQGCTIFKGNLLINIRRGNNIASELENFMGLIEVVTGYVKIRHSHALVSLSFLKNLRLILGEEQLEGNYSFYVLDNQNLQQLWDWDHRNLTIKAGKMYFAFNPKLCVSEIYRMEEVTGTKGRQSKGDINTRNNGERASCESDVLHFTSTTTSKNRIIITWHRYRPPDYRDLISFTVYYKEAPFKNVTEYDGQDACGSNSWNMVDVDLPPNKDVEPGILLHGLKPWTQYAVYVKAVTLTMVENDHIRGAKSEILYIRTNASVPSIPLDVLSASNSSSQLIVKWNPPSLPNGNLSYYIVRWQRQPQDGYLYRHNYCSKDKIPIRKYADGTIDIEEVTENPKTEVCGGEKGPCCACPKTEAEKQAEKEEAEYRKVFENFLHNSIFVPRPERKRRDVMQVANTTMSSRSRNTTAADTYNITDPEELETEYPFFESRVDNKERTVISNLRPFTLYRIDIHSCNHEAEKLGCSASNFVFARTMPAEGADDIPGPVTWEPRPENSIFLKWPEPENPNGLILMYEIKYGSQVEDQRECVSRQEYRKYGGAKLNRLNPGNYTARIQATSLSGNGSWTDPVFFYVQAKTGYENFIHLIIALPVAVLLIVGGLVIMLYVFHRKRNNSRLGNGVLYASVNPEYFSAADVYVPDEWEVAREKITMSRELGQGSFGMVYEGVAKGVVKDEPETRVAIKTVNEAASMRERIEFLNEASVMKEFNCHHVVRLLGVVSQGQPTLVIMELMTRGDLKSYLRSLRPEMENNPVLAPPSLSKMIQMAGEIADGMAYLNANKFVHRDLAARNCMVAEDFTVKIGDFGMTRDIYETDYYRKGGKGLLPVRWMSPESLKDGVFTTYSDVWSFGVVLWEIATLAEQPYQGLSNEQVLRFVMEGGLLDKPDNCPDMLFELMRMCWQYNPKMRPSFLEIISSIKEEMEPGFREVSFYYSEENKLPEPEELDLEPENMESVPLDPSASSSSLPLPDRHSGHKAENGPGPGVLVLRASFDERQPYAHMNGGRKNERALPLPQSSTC
- experimental-protocol: cell-based or functional assay
quantity-name: Signal activation EC50 vs IGF11-16, PathHunter (ratio vs IGF11-16)
Numbers only, in ratio vs IGF11-16.

The following binders each have a reported value; give each one's Signal activation EC50 vs IGF11-16, PathHunter.
1. IGF11-16 with alanine substitution of W at position 33 (CDR-H1) (antibody, mouse IgG1, V domains shown) VH: QIQLQQPGAELVKPGASVKLSCKAPGYTFTSYAMHWVKQRPGQGLEWIGETNPSNSVTNYNEKFKSKATLTVDKSSSTAYMQLSSLTSEDSAVYYCTIGRGRGFAYWGQGTLVTVSA VL: DIQMNQSPSSLSASLGDTITITCRASQNINFWLSWCQQKPGNIPKLLIYKASNLHTGVPSRFSGSGSGTDFTLTISSLQPEDIATYYCLQGQSYPYTFGGGTKLEIK
2. IGF11-16 with alanine substitution of N at position 52 (CDR-H2) (antibody, mouse IgG1, V domains shown) VH: QIQLQQPGAELVKPGASVKLSCKAPGYTFTSYWMHWVKQRPGQGLEWIGETAPSNSVTNYNEKFKSKATLTVDKSSSTAYMQLSSLTSEDSAVYYCTIGRGRGFAYWGQGTLVTVSA VL: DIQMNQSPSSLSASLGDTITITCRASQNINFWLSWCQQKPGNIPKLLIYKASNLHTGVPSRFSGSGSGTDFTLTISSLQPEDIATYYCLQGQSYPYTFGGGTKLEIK

[0.5, 2.7]
